# credit: ChEMBL document CHEMBL1201862

tested on: KM12; experiment: NCI tumour cell line growth inhibition, 48 h
Activity calls are given as the source filed them. Rule as the data show it: active = GI50 up to about 1.1 µM and inactive = higher.
Form field: GI50 (one value per entry).

Some compounds with recorded GI50:
COMPOUND: C=C1CCC2C(C)(CO)C(O)CCC2(C)C1C/C=C1/CCOC1=O (stereo unspecified)
MEASUREMENT_NAME: GI50
RECORDED_RESULT: > 100 µM (inactive)
--
COMPOUND: CN1C(=O)C23CCCC2CC1(c1ccccc1)S3 (stereo unspecified)
MEASUREMENT_NAME: GI50
RECORDED_RESULT: > 100 µM (inactive)
--
COMPOUND: C/C(=C\c1ccccc1)C(=O)NCc1ccc(C(=O)NCCC(C)C)cc1
MEASUREMENT_NAME: GI50
RECORDED_RESULT: > 100 µM (inactive)
--
COMPOUND: COc1nc(N(C)C)nc2c1[n+](C)cn2C
MEASUREMENT_NAME: GI50
RECORDED_RESULT: 27.7 µM (inactive)

Result for COc1cc2c(cc1OC)-c1cc3ccc(OC)c(OC)c3c[n+]1CC2 [PALMATINE CHLORIDE] , tested on KM12, GI50: > 100 µM (inactive)

Result for `N#C/C(=C\c1ccc2ccccc2c1)C(=O)c1ccccc1` , tested on KM12, GI50: > 100 µM (inactive)
